Test system: TTR
Assay: TTR editing in primary cyno hepatocytes treated with LNP formulated Spy Cas9 mRNA (SEQ ID NO: 2) and sgRNAs (Tables 17, 18)
Type: cell-based, cynomolgus monkey
Conditions: LNP formulated Spy Cas9 mRNA (SEQ ID NO: 2) and cyno matched sgRNAs, 72 hours post treatment
Procedure: Primary liver hepatocytes. Primary human liver hepatocytes (PHH) and primary cynomolgus liver hepatocytes (PCH) (Gibco) were cultured per the manufacturer's protocol (Invitrogen, protocol 11.28.2012). […] Cells were counted and plated on Bio-coat collagen I coated 96-well plates (ThermoFisher, Cat. 877272) at a density of 33,000 cells/well for human or 60,000 cells/well for cyno (or 65,000 cells/well when assaying effects on TTR protein, described further below). […]
Strand notation (5' to 3'): a small letter for the sugar, then the base; units joined by * are phosphorothioate-linked, units joined directly phosphodiester-linked; [ ] holds rarer units or linkages, { } end groups; capitals alone tell only the bases. m = 2'-O-methyl; r = 2'-OH (RNA)
endpoint: 12.5 ng mRNA, 3.9 nM sgRNA % Edit
Quote the value and follow it with the unit of measurement.

Examples with answers:
INSERT INTO results (molecule, recorded_value) VALUES
  ('G000509: TTR Cyno specific sgRNA modified sequence, SEQ ID No. 121; guide sequence of CR005369 (nucleic acid) guide: mA*mA*mA*rGrUrUrCrUrArGrArUrGrCrCrGrUrCrCrGrGrUrUrUrUrArGrAmGmCmUmAmGmAmAmAmUmAmGmCrArArGrUrUrArArArArUrArArGrGrCrUrArGrUrCrCrGrUrUrArUrCrAmAmCmUmUmGmAmAmAmAmAmGmUmGmGmCmAmCmCmGmAmGmUmCmGmGmUmGmCmU*mU*mU*mU', '74.47%'),
  ('G000502: TTR Cyno specific sgRNA modified sequence, SEQ ID No. 114; guide sequence of CR000689; cross homologous between mouse and cyno (nucleic acid) guide: mA*mC*mA*rCrArArArUrArCrCrArGrUrCrCrArGrCrGrGrUrUrUrUrArGrAmGmCmUmAmGmAmAmAmUmAmGmCrArArGrUrUrArArArArUrArArGrGrCrUrArGrUrCrCrGrUrUrArUrCrAmAmCmUmUmGmAmAmAmAmAmGmUmGmGmCmAmCmCmGmAmGmUmCmGmGmUmGmCmU*mU*mU*mU', '80.70%'),
  ('G000506: TTR Cyno specific sgRNA modified sequence, SEQ ID No. 118; guide sequence of CR005366 (nucleic acid) guide: mA*mU*mA*rCrCrArGrUrCrCrArGrCrGrArGrGrCrArGrGrUrUrUrUrArGrAmGmCmUmAmGmAmAmAmUmAmGmCrArArGrUrUrArArArArUrArArGrGrCrUrArGrUrCrCrGrUrUrArUrCrAmAmCmUmUmGmAmAmAmAmAmGmUmGmGmCmAmCmCmGmAmGmUmCmGmGmUmGmCmU*mU*mU*mU', '60.13%');

Lab note: next molecule to report on.
What value of 12.5 ng mRNA, 3.9 nM sgRNA % Edit has been recorded for this entry: G000510: TTR Cyno specific sgRNA modified sequence, SEQ ID No. 122; guide sequence of CR005370 (nucleic acid) guide: mA*mC*mU*rUrGrUrCrUrUrCrUrCrUrArUrArCrCrCrArGrUrUrUrUrArGrAmGmCmUmAmGmAmAmAmUmAmGmCrArArGrUrUrArArArArUrArArGrGrCrUrArGrUrCrCrGrUrUrArUrCrAmAmCmUmUmGmAmAmAmAmAmGmUmGmGmCmAmCmCmGmAmGmUmCmGmGmUmGmCmU*mU*mU*mU
61.87%
